Test system: CCRF-CEM
Test: NCI tumour cell line growth inhibition, 48 h
Activity calls are given as the source filed them. Rule as the data show it: active = GI50 up to about 1.1 µM and inactive = higher.
I'd appreciate it if you could supply GI50 values for the items below.

The examples below pair each entry with its known result.
CCOC(=O)NC(=O)c1cn(CCN2CCN(C(=O)CCCCCCCCCCNc3ncnc4[nH]cnc34)CC2)c(=O)[nH]c1=O    > 100 µM (inactive)
S=C1ON=C(c2ccccc2)/C1=C/Nc1ccccc1    > 100 µM (inactive)

Would you mind listing GI50 for each of the following molecules?
1. c1cc2c(cc1NC1=NCCO1)CCCC2
2. CO[C@@H]1C[C@H]2[C@@H]3CC[C@H]([C@H](C)COC(C)=O)[C@@]3(C)CC[C@@H]2[C@@]2(C)CC[C@H]3C[C@]312
3. COC(=O)C1CC23CCCN4CCC5(c6ccccc6N(C=O)C15CC2)C43 (stereo unspecified)
4. CC1C(=O)C(C)C(c2ccccc2)N(N=O)C1c1ccccc1 (stereo unspecified)

a:
1: 2.72 µM (inactive); 2: > 100 µM (inactive); 3: > 100 µM (inactive); 4: > 662 µM (inactive)

Source: ChEMBL document CHEMBL1201862
